Would you mind telling me the reported TGI of each entry?
# Tested on: OVCAR-5 ovarian
# protocol: NCI tumour cell line growth inhibition, 48 h

For record O=C1OC(CCCN2CCCCC2)(c2ccccc2)CC12CCCC2 (stereo unspecified) the listed TGI is > 100 µM

compound COc1cc(NS(=O)(=O)c2ccc(C)cc2)c2nccnc2c1 , TGI observed: > 100 µM

Form field TGI, entry CCOc1cccc(/C=N/NC(=O)c2cccc(Nc3ccnc(C(F)(F)F)c3)c2)c1O : 60.7 µM

// field: TGI; key: Cc1cc(Cl)ccc1OCC(=O)Nc1nc2c(Cl)cccc2s1 ; value = > 100 µM

// TGI lookup, compound = O=S(=O)(O)c1ccc(N=Nc2ccc3c(S(=O)(=O)O)cccc3c2O)c2ccccc12 , result: > 100 µM

Just so you know, measured TGI for O=C1COc2cc(NC(=S)Nc3ccccc3)ccc2N1 came out at > 100 µM

###

For each entry below, report its TGI value.
# System: M14 melanoma
# protocol: NCI tumour cell line growth inhibition, 48 h

So, Clc1ccc(CCN(CCc2ccc(Cl)c(Cl)c2)CCN2CCCC2)cc1Cl ? Its TGI was 3.1 µM

Briefly, TGI measured for COc1cccc2c1C(=N)c1c(O)c3c(c(O)c1C2=O)C[C@@](O)(C(C)=O)C[C@@H]3O[C@H]1C[C@H](N)[C@H](O)[C@H](C)O1 : 4.78 µM

Lab note: CCOP(=Nc1ccc(N(C)C)cc1)(OCC)OCC gave TGI of > 100 µM

// TGI value for O=c1[nH]c2ccccc2cc1-c1nc2ccc(Cl)cc2[nH]1 : > 100 µM

// TGI lookup, compound = COC(=O)C1Cc2cc3c(cc2C1=O)CCC3 (stereo unspecified) , result: > 100 µM

Looking up C[C@@H](C(=O)O)N1C(c2ccco2)=C(/C(C=O)=C\c2ccco2)C(=O)/C1=C\c1ccco1 , I see its TGI listed as > 100 µM

TGI reading for CC1(C)N/C(=C\[N+](=O)[O-])C(C)(C)N1O : > 10 µM

Note to self: TGI recorded for O=C1N/C(=C\[N+](=O)[O-])c2ccccc21 was > 100 µM

Per the records, this compound ( O=S(=O)(C1=CC(S(=O)(=O)c2ccccc2)CN(Cc2ccccc2)C1c1cccc2ccccc12)c1ccccc1 (stereo unspecified) ) has TGI equal to > 69 µM

Form field TGI, entry COc1cc(NS(=O)(=O)c2ccc(C)cc2)c2nccnc2c1 : 35.1 µM

# TGI (compound: Cc1nc2ccc(Br)cc2c(=O)n1-c1nnc(C(C)(C)C)s1 ) is > 10 µM

###

# Test system: SF-295 CNS
# protocol: NCI tumour cell line growth inhibition, 48 h
measure: TGI (µM)
Number in µM, nothing else.

The reported TGI of the compound COC(=O)c1csc([C@@H](OC(=O)[C@H](C)[C@H](CCCC(C)(Cl)Cl)OC(=O)c2csc([C@H](O)CO)n2)C(C)C)n1 was 29.1

Record CCCC(C)c1ccc(OCCCCCCN2CCNCC2)cc1 (centres undefined) , field TGI: 3.44

So, CCC1=CCN(c2cc(C)ccn2)OC1c1ccc(OC)cc1 (centres undefined) ? Its TGI was 70.8

Lab note: measured TGI of CCN1C(=O)c2ccc3c4c(ccc(c24)C1=O)C(=O)N(CCCNCc1ccccc1OC)C3=O was 1.37

Reported TGI of C=C(C)[C@@H]1CC[C@]2(COCCCN)CC[C@]3(C)[C@H](CC[C@@H]4[C@@](C)(CCCNCCCN)[C@H](C(=C)C)CC[C@]43C)[C@@H]12 : 3.83

###

# Tested on: HS 578T breast
# protocol: NCI tumour cell line growth inhibition, 48 h
measure: TGI

Entry C/C(=N\NS(=O)(=O)c1ccc(C)cc1)c1ccccn1 — recorded TGI = > 100 µM

The recorded TGI for Cc1ccc(S(=O)(=O)N=Nc2c(O)[nH]c3cc(O)c(C(=O)O)cc23)cc1 is > 100 µM

TGI for Nc1ncc(-c2cnn(C3CCNCC3)c2)cc1-c1nc2cc(Cl)ccc2o1 is 1.77 µM

Per the record, COC(=O)c1ccc2[nH]c(O)c(C(=Nc3ccc(N(C)C(=O)CN4CCN(C)CC4)cc3)c3ccc4c(c3)OCO4)c2c1 has TGI of 2.56 µM

The recorded TGI for entry COC(=O)[C@@H]1C[C@H]2OC(=O)CC[C@]2(C)O[C@H]1[C@H]1O[C@@](C)(O)CCC[C@H]1C equals > 50 µM

Record CS(=O)(=O)C(C#N)c1nc2ccccc2nc1Cl (centres undefined) . Reported TGI: > 100 µM

The compound listed as Cc1nc2ccc(Br)cc2c(=O)n1-c1nnc(C(C)(C)C)s1 has a reported TGI of > 10 µM

Sample N#Cc1ccc(-c2nc3c(N)ncnc3o2)cc1 ; TGI observed: > 100 µM

Note to self: TGI recorded for O=C(O)CCCc1ccc2ccc3ccccc3c2c1 was > 100 µM

Summary for this compound, Cc1ccc(C2=C(c3ccc(C)cc3)C3(c4ccc(C)cc4)C4C(=O)OC(=O)C4C2(c2ccc(C)cc2)S3=O)cc1 (centres undefined) : TGI is > 100 µM

Noted for O=C(/C=C/c1ccccc1)Nc1ncc(Cc2ccccc2Cl)s1 : its TGI reads > 24.7 µM

Quick note, TGI for NC(N)=NS(=O)(=O)c1ccc(NNc2c3ccccc3nc3ccccc23)cc1 landed at 93.6 µM

TGI in this record for CCCC(C)c1ccc(OCCCCCCN2CCNCC2)cc1 (centres undefined) : 4.74 µM

Sample Nc1cc([N+](=O)[O-])ccc1C(=O)N1CCC[C@H]1CO ; TGI observed: > 100 µM

Noted for COc1cc(C2c3cc4c(cc3OC(C)(N3CCCC3)C2C)OCO4)cc(OC)c1OC (centres undefined) : its TGI reads 0.721 µM

Reported TGI for OC(CNc1ccccn1)c1ccccc1 (centres undefined) was > 100 µM

Noted for CC(C)NC(=O)OCc1c2c(n(C)c1COC(=O)NC(C)C)-c1cc(Cl)c(Cl)cc1CC2 : its TGI reads > 100 µM

// field: TGI; key: CC1C2CC(C(S(=O)(=O)O)C2=O)C1(C)C (centres undefined) ; value = > 100 µM

Entry CCN1C(=O)/C(=C/c2c(Cl)[nH]c3cc(C)c(OC)cc23)c2ccccc21 — recorded TGI = 7.23 µM

Looking up CC1(C)N=C(N)N=C(N)N1c1ccc(CCC(=O)Nc2ccc(S(=O)(=O)F)cc2)c(Cl)c1 , I see its TGI listed as > 100 µM

The compound CCOC(=O)/C=C(\C(=O)OCC)n1cc(C)c(=O)n(Cc2cn(CCCCOC(C)=O)nn2)c1=O showed TGI equal to 42.3 µM

TGI for Clc1ccc(CCN(CCc2ccc(Cl)c(Cl)c2)CCN2CCCC2)cc1Cl is 4.47 µM

Measured TGI, COc1ccc2c(c1)/C(=C\c1c(Cl)[nH]c3cc(C)c(OC)cc13)C(=O)N2 : > 50.7 µM

For reference, reported TGI for S=C(N/N=C/c1ccccn1)N1CCCCC1 stands at 45.1 µM

###

# Tested on: ACHN renal
# protocol: NCI tumour cell line growth inhibition, 48 h
What TGI was measured for each of the following?

Measured TGI of COc1cc(NS(=O)(=O)c2ccc(C)cc2)c2nccnc2c1 : 80.8 µM

Measured TGI of Cc1ccc(-n2[nH]nc(C(N)=O)c2=O)cc1 : > 100 µM

Query CCOC(=O)[CH-]C(=O)C12CC3CC(CC(C3)C1)C2.CCOC(=O)[CH-]C(=O)C12CC3CC(CC(C3)C1)C2.CC[O-].CC[O-].[Ti+4] yields TGI of > 100 µM

The compound listed as CN(C)Cc1cc(C(F)(F)F)ccc1C(O)(c1ccccc1)c1ccccc1 shows TGI equal to 29.9 µM

Form field TGI, entry COc1ccc2nc3cc(Cl)ccc3c(Sc3ccc([N+](=O)[O-])cc3C)c2c1 : > 100 µM

Reported TGI for CCOC(=O)CCC(NC(=O)c1ccc(Nc2nc3ccc(C(F)(F)F)cc3nc2-c2ccccc2)cc1)C(=O)OCC (centres undefined) was > 100 µM

TGI reading for NC(=Nc1ccccc1Cl)c1ccccc1N : > 100 µM

Consider COc1cc(C2c3cc4c(cc3OC(C)(N3CCCC3)C2C)OCO4)cc(OC)c1OC (centres undefined) . Its measured TGI is > 79.9 µM

# TGI (compound: CC1(C)C2CCC1(C)C(N/C(Sc1ccccc1)=C(/C(Cl)=C(Cl)Cl)[N+](=O)[O-])C2 (centres undefined) ) is 26.3 µM

###

Exercise: state measured TGI for each of the molecules provided.
# System: ACHN renal
# protocol: NCI tumour cell line growth inhibition, 48 h

TGI reported for this molecule N[C@H](C(=O)O)[C@@H]1CC(Cl)=NO1 : > 1000 µM

Recorded result, CCCCCCNCCc1cnc[nH]1 , TGI: > 100 µM

Entry COc1ccc(C2=C[C@]3(O)CCCN3C[C@@H]2c2ccc(OC)c(OC)c2)cc1 , TGI reported as 0.00185 µM

GET /value?item= C[C@]12CC=CC(=O)[C@@]1(C)CCC(=O)C2 &field=TGI returns > 100 µM

Just so you know, measured TGI for Cc1n(CC(C)C)c2c([n+]1C)C(=O)c1ccccc1C2=O came out at 3.53 µM

Reported TGI for COc1ccc(/C=C2\N=C(N3CCCCC3)NC2=O)cc1 was > 100 µM

Sure, the documented TGI for Cc1ccc(C2(O)CSC(=NC34CC5CC(CC(C5)C3)C4)N2C(P(=O)(O)O)P(=O)(O)O)cc1 (configuration not stated) is > 100 µM
